tested on: UDP-3-O-acyl-N-acetylglucosamine deacetylase (Escherichia coli K-12), P0A725 [C125S]; settings: 25 uM
Sequence (P0A725 whole entry C125S): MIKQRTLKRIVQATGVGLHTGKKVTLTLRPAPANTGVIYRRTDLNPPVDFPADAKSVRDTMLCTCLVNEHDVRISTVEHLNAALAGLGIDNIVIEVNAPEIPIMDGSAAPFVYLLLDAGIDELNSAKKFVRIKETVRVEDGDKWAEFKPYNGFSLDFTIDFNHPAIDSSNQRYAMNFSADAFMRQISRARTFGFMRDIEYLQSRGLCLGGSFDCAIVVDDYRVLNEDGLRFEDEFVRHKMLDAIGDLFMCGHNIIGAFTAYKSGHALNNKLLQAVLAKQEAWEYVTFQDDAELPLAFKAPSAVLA
As shown below, each of these compounds has a reported deltaTm value.
Test readout: deltaTm (K)

INSERT INTO results (compound, test_readout, observed_value) VALUES
  ('C[C@@](CCN1Cc2cc(C#CC#CC3CN(CC(F)F)C3)cn2C1=O)(C(=O)NO)S(C)(=O)=O', 'deltaTm', 10.6),
  ('C[C@@](CCN1Cc2cc(C#CC#CC3CN(CCF)C3)cn2C1=O)(C(=O)NO)S(C)(=O)=O', 'deltaTm', 10.6),
  ('CC(=O)N1CC(C#CC#Cc2cc3n(c2)C(=O)N(CC[C@](C)(C(=O)NO)S(C)(=O)=O)C3)C1', 'deltaTm', 9.7),
  ('CCN1CC(C#CC#Cc2cc3n(c2)C(=O)N(CC[C@](C)(C(=O)NO)S(C)(=O)=O)C3)C1', 'deltaTm', 9.3),
  ('C[C@@](CCN1Cc2cc(C#CC#CC3(F)CNC3)cn2C1=O)(C(=O)NO)S(C)(=O)=O', 'deltaTm', 7.1),
  ('CN(C)C1(C#CC#Cc2cc3n(c2)C(=O)N(CC[C@](C)(C(=O)NO)S(C)(=O)=O)C3)CC1', 'deltaTm', 11.6);
